- Experimental Protocol: physchem
- Condition Parameters: buffer, pH 7.4
Metric: logD

> print(dat)
                                   molecule  observed
1  CCCC(Oc1ccc(-n2cc(C(=O)N(C)C)cn2)cc1)c1ccc(C(=O)NCCC(=O)O)cc1 (racemic)       0.5
2  CCCC(Nc1ccc(-n2cc(C(F)(F)F)cn2)cc1)c1ccc(C(=O)NCCC(=O)O)cc1 (racemic)       1.9
3  CCCC(Oc1ccc(-n2cc(C(F)(F)F)c(C)n2)cc1)c1ccc(C(=O)NCCC(=O)O)cc1 (racemic)       2.8
4  CCCC(Oc1ccc(-n2cc3ccccc3n2)cc1)c1ccc(C(=O)NCCC(=O)O)cc1 (racemic)       2.5
5  CCC[C@@H](Oc1cc(C)c(-n2cc(C(F)(F)F)cn2)c(C)c1)c1ccc(C(=O)NCCC(=O)O)cc1       2.7
6  CCCC(Oc1cc(C)c(-n2cc(C(F)(F)F)cn2)c(C)c1)c1ccc(C(=O)NCCC(=O)O)cc1 (racemic)       2.6
7  CCC(Oc1ccc(-n2cc(C(F)(F)F)cn2)cc1)c1ccc(C(=O)NCCC(=O)O)cc1 (racemic)       1.9

I = CCCC(Oc1ccc(-n2cc(OC)cn2)cc1)c1ccc(C(=O)NCCC(=O)O)cc1 (racemic)
II = CC(C)(C)C(Oc1ccc(-n2cc(C(F)(F)F)cn2)cc1)c1ccc(C(=O)NCCC(=O)O)cc1 (racemic)
## Input Which has the higher logD, I or II ? Kindly state the label of the option you pick.
## Output II
(II: 3.7, I: 1.4)
